target: D(2) dopamine receptor (Rattus norvegicus); test: Binding affinity for [3H]raclopride-labeled dopamine receptor D2 in rat striatum; type: tissue-based
Sequence (P61169 whole entry): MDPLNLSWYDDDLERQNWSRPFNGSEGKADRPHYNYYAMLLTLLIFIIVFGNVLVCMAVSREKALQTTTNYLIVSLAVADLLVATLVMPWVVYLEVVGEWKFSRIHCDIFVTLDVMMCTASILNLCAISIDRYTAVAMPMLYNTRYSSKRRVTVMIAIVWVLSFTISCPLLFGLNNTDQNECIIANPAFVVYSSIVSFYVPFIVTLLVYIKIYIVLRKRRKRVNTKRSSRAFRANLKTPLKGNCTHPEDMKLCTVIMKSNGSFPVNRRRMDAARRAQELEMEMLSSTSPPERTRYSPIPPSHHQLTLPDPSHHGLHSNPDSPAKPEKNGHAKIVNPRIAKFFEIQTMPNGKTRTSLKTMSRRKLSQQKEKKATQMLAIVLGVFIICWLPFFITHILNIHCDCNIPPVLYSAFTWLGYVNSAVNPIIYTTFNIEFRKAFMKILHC
Readout name: log10 of Ki (log10 of the value in nM)
The figures below represent log10 of Ki, where Ki is stated in nM.

# count of solved cases: 5
>>> print(df.to_string())
                                   compound                                    target  recorded_number
0  CCCN1CC[C@@H]2Cc3c(O)cccc3C[C@H]21 (racemic)  D(2) dopamine receptor (Rattus norvegicus)             1.23
1  Oc1cccc2c1C[C@H]1CCN(CC3CC3)[C@@H]1C2 (racemic)  D(2) dopamine receptor (Rattus norvegicus)             2.07
2  C=CCN1CC[C@@H]2Cc3c(cccc3OC)C[C@@H]21 (racemic)  D(2) dopamine receptor (Rattus norvegicus)             2.63
3  COc1cccc2c1C[C@H]1CCN(CC3CC3)[C@H]1C2 (racemic)  D(2) dopamine receptor (Rattus norvegicus)             2.87
4        CCCN1CC[C@@H]2Cc3c(O)cccc3C[C@H]21  D(2) dopamine receptor (Rattus norvegicus)             0.30

Quick check: log10 of Ki of CCCN1CC[C@@H]2Cc3c(cccc3OC)C[C@H]21 (racemic) ?
2.94

Try COc1cccc2c1C[C@H]1CCN(Cc3ccccc3)[C@H]1C2 (racemic) next.
2.67

----------
Reported values of Max temperature decrease for individual entries
tested on: Mus musculus; assay: Maximum decrease in temperature when compound is administered through peroral route; type: functional
Enter the number alone.

In [3]: df
Out[3]:
                                   compound        target  recorded_number
0  CCCN(CCC)C1CCc2cccc(O)c2C1 (stereo not drawn)  Mus musculus              7.5
1        CCCN1CC[C@@H]2Cc3c(O)cccc3C[C@H]21  Mus musculus             10.9

We now examine a further compound.
I would be grateful if you could share the reported Max temperature decrease for CCCN1[C@@H](C)C[C@@H]2Cc3cccc(OC)c3C[C@@H]21 (racemic) .
3.1

----------
target: D(2) dopamine receptor (Homo sapiens); test: Binding affinity against [3H]U-86,170-labeled dopamine receptor D2 in cloned CHO cells
Sequence (P14416 whole entry): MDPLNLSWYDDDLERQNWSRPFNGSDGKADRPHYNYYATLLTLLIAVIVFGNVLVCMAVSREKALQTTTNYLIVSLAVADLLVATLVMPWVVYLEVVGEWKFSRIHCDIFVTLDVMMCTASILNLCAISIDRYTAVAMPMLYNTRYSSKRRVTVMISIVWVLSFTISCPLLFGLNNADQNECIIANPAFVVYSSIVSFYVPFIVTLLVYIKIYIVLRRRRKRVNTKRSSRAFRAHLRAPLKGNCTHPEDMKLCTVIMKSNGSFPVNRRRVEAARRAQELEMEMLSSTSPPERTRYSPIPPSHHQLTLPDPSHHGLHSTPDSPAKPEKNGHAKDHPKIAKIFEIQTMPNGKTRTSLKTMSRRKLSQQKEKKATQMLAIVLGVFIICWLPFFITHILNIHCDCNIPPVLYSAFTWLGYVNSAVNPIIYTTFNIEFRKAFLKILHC
Each entry below carries its recorded pKi.
Please treat pKi as minus the base-10 logarithm of the molar concentration.

Illustrative cases are given below, each with its answer.
>>> print(df.to_string())
                                   molecule  recorded_number
0        CCCN1CC[C@@H]2Cc3c(O)cccc3C[C@H]21             9.30
1  CCCN1[C@@H](C)C[C@@H]2Cc3cccc(OC)c3C[C@@H]21 (racemic)             6.33

Name the reported pKi value associated with the molecule CCCN1CC[C@@H]2Cc3c(cccc3OC)C[C@H]21 (racemic)
7.00

----------
target: D(2) dopamine receptor (Rattus norvegicus); assay: Binding affinity for [3H]raclopride-labeled dopamine receptor D2 in rat striatum; format: tissue-based
Readout name: Ki

Worked examples follow.
>>> print(df.to_string())
                                   molecule      result
0  C=CCN1CC[C@@H]2Cc3c(cccc3OC)C[C@H]21 (racemic)   > 1000 nM
1  COc1cccc2c1C[C@H]1CCN(Cc3ccccc3)[C@@H]1C2 (racemic)  > 10000 nM

Lab note: next molecule to report on.
Record request: Ki value, item `CCCN1CC[C@H]2Cc3c(O)cccc3C[C@@H]21`
> 630 nM
